test: ABTS assay; conditions: trolox equivalents, n = 3, average ± SD
Marks after values point to notes of the source that are not given here.
Would you mind telling me the reported ABTS antioxidant activity of each entry?

Recorded ABTS antioxidant activity, per entry:
MOLECULE	ABTS antioxidant activity
O=C(/C=C/c1ccc(O)c(O)c1)O[C@@H]1CC(O)(C(=O)O)C[C@@H](OC(=O)/C=C/c2ccc(O)c(O)c2)C1O (stereo partly shown) [3,5-Dicaffeoylquinic acid, 3,5-dicaffeoylquinic acid, reference compound]	701.64 ± 13.63 ^b mg TE/g
C[C@@H]1O[C@@H](Oc2c(-c3ccc(O)cc3)oc3cc(O)cc(O)c3c2=O)[C@H](OC(=O)/C=C/c2ccc(O)cc2)[C@H](OC(=O)/C=C/c2ccc(O)cc2)[C@H]1O [Platanoside]	173.15 ± 0.86 ^d mg TE/g
C[C@@H]1OC(Oc2c(-c3ccc(O)cc3)oc3cc(O)cc(O)c3c2=O)[C@H](O)[C@H](O)[C@H]1O (stereo partly shown) [Afzelin, kaempferol-3-O-rhamnopyranoside]	104.71 ± 0.25 ^e mg TE/g

Proceed to the following item.
For O=c1c(O[C@@H]2O[C@H](CO)[C@H](O)[C@H](O)[C@H]2O[C@@H]2O[C@H](CO)[C@@H](O)[C@H](O)[C@H]2O)c(-c2ccc(O)c(O)c2)oc2cc(O)cc(O)c12 , what is its reported ABTS antioxidant activity?
242.13 ± 5.88 ^c mg TE/g
